// reported cGAS 100 nM (averaged IP-10 level relative to ISD70 condition) for each item listed
- experimental_system: cGAS (Homo sapiens)
- Sequence (Q8N884 whole entry): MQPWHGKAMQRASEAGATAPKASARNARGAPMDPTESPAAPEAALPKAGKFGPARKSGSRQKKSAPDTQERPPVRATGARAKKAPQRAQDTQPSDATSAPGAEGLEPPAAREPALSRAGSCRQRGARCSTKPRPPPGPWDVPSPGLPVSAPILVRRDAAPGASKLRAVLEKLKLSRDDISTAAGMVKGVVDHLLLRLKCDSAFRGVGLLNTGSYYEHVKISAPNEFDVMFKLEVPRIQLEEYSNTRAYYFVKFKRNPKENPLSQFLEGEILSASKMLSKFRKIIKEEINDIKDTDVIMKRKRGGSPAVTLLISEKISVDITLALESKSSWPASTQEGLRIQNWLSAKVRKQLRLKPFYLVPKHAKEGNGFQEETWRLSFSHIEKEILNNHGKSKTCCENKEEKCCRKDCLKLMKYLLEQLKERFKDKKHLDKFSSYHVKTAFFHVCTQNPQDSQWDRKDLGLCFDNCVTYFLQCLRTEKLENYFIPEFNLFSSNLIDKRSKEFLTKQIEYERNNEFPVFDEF
- assay_comment: ISD70-driven IP-10 (and IFN-β) production in THP-1 cells, ELISA
- Type: cell-based
- Set-up: endogenous in cells; host or cells: THP-1 (undifferentiated)
- stated_conditions: ASO 100 nM; relative to ISD70 only, given as fraction
- Method: The ability of an oligonucleotide to inhibit cGAS activity can, for example, be analysed by incubating cells which express cGAS with an oligonucleotide, then stimulating said cells with a cGAS agonist (e.g., 70-bp interferon stimulating DNA or ISD70; 45-bp interferon stimulating DNA or ISD45), and analysing the overall cGAS response in the cell population, or analysing the proportion of cells having cGAS-positive activity after a defined period of time. […]
measurement_name: cGAS 100 nM (averaged IP-10 level relative to ISD70 condition)

[
  {
    "construct_sequence": "CTTGAAGCATCGTATC (antisense; LNA-modified, pattern not given here) [CTNN2B-3648 LNA KL]",
    "quantitative_readout": 0.373
  },
  {
    "construct_sequence": "GATGGCCTCCCATCTC (antisense; LNA-modified, pattern not given here) [HPRT LNA-331 V1]",
    "quantitative_readout": 0.632
  },
  {
    "construct_sequence": "GTGATGGCCTCCCATC (antisense; LNA-modified, pattern not given here) [HPRT LNA-333 V1]",
    "quantitative_readout": 0.724
  },
  {
    "construct_sequence": "GACTATACGCGCAATA (antisense; LNA-modified, pattern not given here) [NC5 LNA PS 3-10-3]",
    "quantitative_readout": 0.991
  },
  {
    "construct_sequence": "TGACTGTCTTGAGGGT (antisense; LNA-modified, pattern not given here) [MB21D1-1483 LNA KL]",
    "quantitative_readout": 0.747
  },
  {
    "construct_sequence": "GTCCTTGCACGTGGCT (antisense; LNA-modified, pattern not given here) [EGFR-1015 LNA V1]",
    "quantitative_readout": 0.645
  },
  {
    "construct_sequence": "GGCTCGGCTTGCCTAC (antisense; LNA-modified, pattern not given here) [CAMSAP1-5594 LNA V1]",
    "quantitative_readout": 0.761
  },
  {
    "construct_sequence": "TACTTTCCGAGGTGTC (antisense; LNA-modified, pattern not given here) [CAMSAP1-1739 LNA KL]",
    "quantitative_readout": 0.638
  },
  {
    "construct_sequence": "ATGTGATGGCCTCCCA (antisense; LNA-modified, pattern not given here) [HPRT LNA-335 V1]",
    "quantitative_readout": 0.606
  },
  {
    "construct_sequence": "TCCAACACTTCGTGGG (antisense; LNA-modified, pattern not given here) [HPRT LNA-669 V1]",
    "quantitative_readout": 0.539
  },
  {
    "construct_sequence": "CTTCGTGGGGTCCTTT (antisense; LNA-modified, pattern not given here) [HPRT LNA-662 V1]",
    "quantitative_readout": 0.556
  },
  {
    "construct_sequence": "TCTTCATCGGCCCTGC (antisense; LNA-modified, pattern not given here) [CAMSAP1-2112 LNA V1]",
    "quantitative_readout": 0.548
  },
  {
    "construct_sequence": "GTCTTGGCTTCGTGGA (antisense; LNA-modified, pattern not given here) [MB21D1-522 LNA V1]",
    "quantitative_readout": 0.620
  },
  {
    "construct_sequence": "GCATCCACCACGTCGT (antisense; LNA-modified, pattern not given here) [EGFR-3267 LNA V1]",
    "quantitative_readout": 0.602
  },
  {
    "construct_sequence": "TCCGCCCAAAGGGAAC (antisense; LNA-modified, pattern not given here) [HPRT LNA-1027 KL]",
    "quantitative_readout": 0.860
  }
]

====

- experimental_system: human TLR7 (Homo sapiens, UniProt Q9NYK1)
- Construct: HA; host or cells: 293XL-hTLR7-HA (HEK293)
- Sequence (Q9NYK1 27-1049): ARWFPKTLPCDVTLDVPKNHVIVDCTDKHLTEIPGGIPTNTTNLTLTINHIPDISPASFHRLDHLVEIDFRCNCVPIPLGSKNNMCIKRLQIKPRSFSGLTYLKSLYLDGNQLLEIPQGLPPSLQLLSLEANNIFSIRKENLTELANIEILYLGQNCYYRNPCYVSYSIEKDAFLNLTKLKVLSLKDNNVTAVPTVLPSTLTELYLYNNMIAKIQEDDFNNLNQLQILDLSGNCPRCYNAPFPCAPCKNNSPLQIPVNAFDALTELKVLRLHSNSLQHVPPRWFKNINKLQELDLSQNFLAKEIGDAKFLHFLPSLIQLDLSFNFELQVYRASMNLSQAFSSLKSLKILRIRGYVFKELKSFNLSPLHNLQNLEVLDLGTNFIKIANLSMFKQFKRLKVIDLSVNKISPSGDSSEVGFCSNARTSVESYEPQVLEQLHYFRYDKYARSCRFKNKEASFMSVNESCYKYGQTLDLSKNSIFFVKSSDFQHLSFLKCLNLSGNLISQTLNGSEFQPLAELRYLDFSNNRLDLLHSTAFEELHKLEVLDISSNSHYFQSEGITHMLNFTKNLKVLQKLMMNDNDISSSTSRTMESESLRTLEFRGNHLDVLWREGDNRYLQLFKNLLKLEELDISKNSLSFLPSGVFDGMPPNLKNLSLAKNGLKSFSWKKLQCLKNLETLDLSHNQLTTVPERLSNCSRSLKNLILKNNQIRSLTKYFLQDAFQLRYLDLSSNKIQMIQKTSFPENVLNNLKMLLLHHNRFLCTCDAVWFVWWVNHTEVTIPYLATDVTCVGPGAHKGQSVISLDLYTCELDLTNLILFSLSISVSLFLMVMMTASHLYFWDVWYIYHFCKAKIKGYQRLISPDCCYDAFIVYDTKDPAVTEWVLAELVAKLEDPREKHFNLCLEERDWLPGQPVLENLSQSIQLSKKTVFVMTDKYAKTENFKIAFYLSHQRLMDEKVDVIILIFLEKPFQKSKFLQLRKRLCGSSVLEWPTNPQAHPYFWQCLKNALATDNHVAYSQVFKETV
- assay_comment: HEK-TLR7 NF-κB-luciferase reporter, R848 stimulation
- Assay type: cell-based
- stated_conditions: HEK-TLR7; 100 nM ASO; percentage of R848 without ASO (Alharbi et al., 2020)
In the oligonucleotide strings, read from the 5' end, every base follows the letter of its sugar. An asterisk marks phosphorothioate; unmarked linkages are phosphodiester. Other units and linkages are bracketed, terminal groups are in braces. A string of capitals states the bases alone. d = 2'-deoxy (DNA); m = 2'-O-methyl
Criterion: TLR7-100 nM: averaged NF-κB-Luciferase relative to R848 meeting or surpassing 30%. Met: yes. Not met: no.

[
  {
    "substance": "mC*mU*mU*mG*mU*G*A*A*A*A*G*A*T*T*A*mU*mC*mU*mU*mC (mC*mU*mU*mG*mU*dG*dA*dA*dA*dA*dG*dA*dT*dT*dA*mU*mC*mU*mU*mC) [[CDKN2B-AS1]2139]",
    "assigned_label": "yes"
  },
  {
    "substance": "mA*mU*mG*mA*mC*A*T*T*T*C*G*T*G*G*C*mU*mC*mC*mU*mA (mA*mU*mG*mA*mC*dA*dT*dT*dT*dC*dG*dT*dG*dG*dC*mU*mC*mC*mU*mA) [[LINC-PINT]524.1]",
    "assigned_label": "yes"
  },
  {
    "substance": "mA*mA*mG*mC*mA*G*T*C*T*C*C*A*T*G*T*mC*mC*mC*mA*mG (mA*mA*mG*mC*mA*dG*dT*dC*dT*dC*dC*dA*dT*dG*dT*mC*mC*mC*mA*mG; antisense) [[CDKN2B-AS1]2236]",
    "assigned_label": "yes"
  },
  {
    "substance": "mG*mG*mU*mC*mC*C*A*T*C*C*C*T*T*C*T*mG*mC*mU*mG*mC (GGUCCCATCCCTTCTGCUGC; sugars from the 5' end m5 d10 m5, all phosphorothioate, methylation of C not given here) [[LINC-PINT]103]",
    "assigned_label": "no"
  },
  {
    "substance": "mC*mC*mU*mU*mC*T*G*C*T*G*C*C*A*A*G*mC*mC*mC*mC*mA (mC*mC*mU*mU*mC*dT*dG*dC*dT*dG*dC*dC*dA*dA*dG*mC*mC*mC*mC*mA; antisense) [[LINC-PINT]94]",
    "assigned_label": "yes"
  }
]

====

Overview of recorded cGAS 100 nM (averaged IP-10 level relative to ISD70 condition) for various sequences
- experimental_system: cGAS (Homo sapiens)
- assay_comment: ISD70-driven IP-10 (and IFN-β) production in THP-1 cells, ELISA
- Type: cell-based
- Set-up: endogenous in cells; host or cells: THP-1 (undifferentiated)
- stated_conditions: ASO 100 nM; relative to ISD70 only, given as fraction
measurement_name: cGAS 100 nM (averaged IP-10 level relative to ISD70 condition)

[
  {
    "construct_sequence": "GCACACTTCGTACCCA (antisense; LNA-modified, pattern not given here) [CAMSAP1-4915 LNA V1]",
    "quantitative_readout": 0.383
  },
  {
    "construct_sequence": "CACTTCGTGGGGTCCT (antisense; LNA-modified, pattern not given here) [HPRT LNA-664 V1]",
    "quantitative_readout": 0.562
  },
  {
    "construct_sequence": "AATCCAACAAAGTCTG (antisense; LNA-modified, pattern not given here) [HPRT LNA-692 KL]",
    "quantitative_readout": 0.649
  },
  {
    "construct_sequence": "CAACACTTCGTGGGGT (antisense; LNA-modified, pattern not given here) [HPRT LNA-667 V1]",
    "quantitative_readout": 0.675
  },
  {
    "construct_sequence": "CCTTGCACGTGGCTTC (antisense; LNA-modified, pattern not given here) [EGFR-1013 LNA V1]",
    "quantitative_readout": 0.559
  },
  {
    "construct_sequence": "TTTTGGCTGGGATCAA (antisense; LNA-modified, pattern not given here) [CAMSAP1-4697 LNA KL]",
    "quantitative_readout": 0.590
  },
  {
    "construct_sequence": "CATCCACCACGTCGTC (antisense; LNA-modified, pattern not given here) [EGFR-3266 LNA V1]",
    "quantitative_readout": 0.902
  },
  {
    "construct_sequence": "GTGATCTTGACATGCT (antisense; LNA-modified, pattern not given here) [EGFR-2790 LNA KL]",
    "quantitative_readout": 0.661
  },
  {
    "construct_sequence": "GGTCTTGGCTTCGTGG (antisense; LNA-modified, pattern not given here) [MB21D1-523 LNA V1]",
    "quantitative_readout": 0.648
  },
  {
    "construct_sequence": "CGGCCTCGGAAGCTCT (antisense; LNA-modified, pattern not given here) [MB21D1-168 LNA V1]",
    "quantitative_readout": 0.617
  },
  {
    "construct_sequence": "TGGCCTCCCATCTCCT (antisense; LNA-modified, pattern not given here) [HPRT LNA-329 V1]",
    "quantitative_readout": 0.494
  },
  {
    "construct_sequence": "GGTTACGGCTCAGTAT (antisense; LNA-modified, pattern not given here) [CAMSAP1-4295 LNA KL]",
    "quantitative_readout": 0.661
  },
  {
    "construct_sequence": "GCCATGTTTCTTCTTG (antisense; LNA-modified, pattern not given here) [MB21D1-1248 LNA KL]",
    "quantitative_readout": 0.639
  },
  {
    "construct_sequence": "TGACAAAGATTCACTG (antisense; LNA-modified, pattern not given here) [HPRT LNA-1353 KL]",
    "quantitative_readout": 0.887
  },
  {
    "construct_sequence": "CCACATCCTGTGGCTC (antisense; LNA-modified, pattern not given here) [CAMSAP1-2906 LNA V1]",
    "quantitative_readout": 0.999
  },
  {
    "construct_sequence": "TGGTCCACAACCCCTT (antisense; LNA-modified, pattern not given here) [MB21D1-697 LNA V1]",
    "quantitative_readout": 0.935
  },
  {
    "construct_sequence": "GGAGGTCTTGGCTTCG (antisense; LNA-modified, pattern not given here) [MB21D1-526 LNA V1]",
    "quantitative_readout": 1.061
  },
  {
    "construct_sequence": "GTTCAGTCCTGTCCAT (antisense; LNA-modified, pattern not given here) [HPRT LNA-292 V1]",
    "quantitative_readout": 0.563
  },
  {
    "construct_sequence": "GTCTTCATCGGCCCTG (antisense; LNA-modified, pattern not given here) [CAMSAP1-2113 LNA V1]",
    "quantitative_readout": 0.809
  },
  {
    "construct_sequence": "GGCTGGAATCCGAGTT (antisense; LNA-modified, pattern not given here) [EGFR-4705 LNA KL]",
    "quantitative_readout": 0.592
  },
  {
    "construct_sequence": "TTCGTGGGGTCCTTTT (antisense; LNA-modified, pattern not given here) [HPRT LNA-661 V1]",
    "quantitative_readout": 0.520
  },
  {
    "construct_sequence": "GTGTCTGGAAGCTTCC (antisense; LNA-modified, pattern not given here) [CTNN2B-809 LNA V1]",
    "quantitative_readout": 0.482
  },
  {
    "construct_sequence": "TGTGATGGCCTCCCAT (antisense; LNA-modified, pattern not given here) [HPRT LNA-334 V1]",
    "quantitative_readout": 0.557
  },
  {
    "construct_sequence": "TCCTTGCACGTGGCTT (antisense; LNA-modified, pattern not given here) [EGFR-1014 LNA V1]",
    "quantitative_readout": 0.591
  },
  {
    "construct_sequence": "CCATCCATGAGGTCCT (antisense; LNA-modified, pattern not given here) [CTNN2B-2545 LNA V1]",
    "quantitative_readout": 0.533
  },
  {
    "construct_sequence": "GTCAAGGGCATATCCT (antisense; LNA-modified, pattern not given here) [HPRT LNA-732 KL]",
    "quantitative_readout": 0.636
  },
  {
    "construct_sequence": "TCGTAGTTGCTTCCTA (antisense; LNA-modified, pattern not given here) [MB21D1-1181 LNA KL]",
    "quantitative_readout": 0.610
  },
  {
    "construct_sequence": "ATCTGGCAGCCCATCA (antisense; LNA-modified, pattern not given here) [CTNN2B-2516 LNA V1]",
    "quantitative_readout": 0.502
  }
]
